Tested on: A704 (Kidney Carcinoma);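 also: after 72 h of two-drug dosing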
ASSAY_PROTOCOL: Bliss excess, mean over the matrix (fraction); higher = more synergy
Would you please tag the item fulfilled when its Bliss excess is -0.03 or above, and not fulfilled when it is below?

// known answers, use as guide
{"COMPOUND": "COc1cccc(OCCCN)c1-c1cc(Nc2cnc(C#N)cn2)n[nH]1 [Prexasertib] + O=C(c1cc(Cc2n[nH]c(=O)c3ccccc23)ccc1F)N1CCN(C(=O)C2CC2)CC1 [Olaparib] (first compound max 1 µM, 7x7, partner max 10 µM)", "DISCRETE_LABEL": "not fulfilled"}
{"COMPOUND": "NC1(C(=O)N[C@@H](CCO)c2ccc(Cl)cc2)CCN(c2ncnc3[nH]ccc23)CC1 [Capivasertib] + C[C@@H]1COCCN1C2=NC(=NC(=C2)C3(CC3)[S@](=N)(=O)C)C4=C5C=CNC5=NC=C4 [AZD6738] (first compound max 10 µM, 7x7, partner max 10 µM)", "DISCRETE_LABEL": "not fulfilled"}
{"COMPOUND": "COc1nnc2ccc(N3CCC(c4ccc(OCCN5CCN(C)C(=O)[C@H]5C)cc4)CC3)nn12 [AZD5153] + C[C@@H]1COCCN1C2=NC(=NC(=C2)C3(CC3)[S@](=N)(=O)C)C4=C5C=CNC5=NC=C4 [AZD6738] (first compound max 1 µM, 7x7, partner max 10 µM)", "DISCRETE_LABEL": "fulfilled"}
{"COMPOUND": "CN(C)CCCOc1ccc(-c2ccc3ncc4c(c3c2)n(C2CCOCC2)c(=O)n4C)cn1 [AZD0156] + C=CCn1c(=O)c2cnc(Nc3ccc(N4CCN(C)CC4)cc3)nc2n1-c1cccc(C(C)(C)O)n1 [AZD1775] (first compound max 1 µM, partner max 1 µM)", "DISCRETE_LABEL": "not fulfilled"}
{"COMPOUND": "Cn1cnc2c(F)c(Nc3ccc(Br)cc3Cl)c(C(=O)NOCCO)cc21 [Selumetinib] + C=CCn1c(=O)c2cnc(Nc3ccc(N4CCN(C)CC4)cc3)nc2n1-c1cccc(C(C)(C)O)n1 [AZD1775] (first compound max 10 µM, partner max 1 µM)", "DISCRETE_LABEL": "fulfilled"}

Task item: Confirm if Bliss excess reported for the compound COc1cccc2c1C(=O)c1c(O)c3c(c(O)c1C2=O)C[C@@](O)(C(=O)CO)C[C@@H]3O[C@H]1C[C@H](N)[C@H](O)[C@H](C)O1 [Doxorubicin] + Cc1cc2ncnn2cc1Nc1ncc2c(n1)n(C1CCOCC1)c(=O)n2C [AZD7648] (first compound max 1 µM, 7x7, partner max 10 µM) is -0.03 or above.
Reply: fulfilled

Task item: Confirm if Bliss excess reported for the compound CC1(C)CCC(CN2CCN(c3ccc(C(=O)NS(=O)(=O)c4ccc(NCC5CCOCC5)c([N+](=O)[O-])c4)c(Oc4cnc5[nH]ccc5c4)c3)CC2)=C(c2ccc(Cl)cc2)C1 [Venetoclax] + CN(C)CCCOc1ccc(-c2ccc3ncc4c(c3c2)n(C2CCOCC2)c(=O)n4C)cn1 [AZD0156] (first compound max 1 µM, 7x7, partner max 1 µM) is -0.03 or above.
Reply: not fulfilled
